The origin of these recorded values is ChEMBL document CHEMBL2010694.

Each entry below carries its recorded CLH.
test system: Liver microsomes; experiment: Intrinsic clearance in human liver microsomes at 1 uM by LC/MS analysis; assay type: ADME, Microsome
measurement.type: CLH (L/min)

>>> numeric_value("CC(C)S(=O)(=O)NC[C@H]1CC[C@H](NC(=O)Cn2ccc3cc(F)c(F)cc32)CC1")
2.5
>>> numeric_value("CC(C)S(=O)(=O)NC[C@H]1CC[C@H](NC(=O)Cn2ccc3cc(Cl)ccc32)CC1")
1.9
>>> numeric_value("CC(C)S(=O)(=O)NC[C@H]1CC[C@H](NC(=O)Cn2ccc3cc(F)ccc32)CC1")
0.6

* * *

assay: Plasma concentration in cPP-induced feeding Sprague-Dawley rat model at 1 mg/kg, po after 1 hr; format: ADME, organism-based; design: dose 1 mg/kg, route oral
# concentration at 1 h annotations
measurement.type: concentration at 1 h (ng/mL)

>>> numeric_value("CC(C)S(=O)(=O)NC[C@H]1CC[C@H](NC(=O)Cn2ccc3cc(Cl)ccc32)CC1")
613
>>> numeric_value("CC(C)S(=O)(=O)NC[C@H]1CC[C@H](NC(=O)CN2CCc3cc(Cl)ccc32)CC1")
516

* * *

experiment: Plasma concentration in Sprague-Dawley rat at 10 mg/kg, po after 1 hr by LC-MS/MS analysis; format: ADME, organism-based; parameters: dose 10 mg/kg, route oral
measurement.type: concentration at 1 h

>>> result("CC(C)S(=O)(=O)NC[C@H]1CC[C@H](NC(=O)CN2CCc3cc(Cl)ccc32)CC1")
"5.47 µM"

* * *

test: Volume of distribution at steady state in Sprague-Dawley rat plasma at 2 mg/kg, po and 1 mg/kg, iv after 24 hrs wash out period by HPLC analysis; type: ADME, organism-based; conditions: read-out: Vdss
measurement.type: Vd (L/kg)

>>> numeric_value("CC(C)S(=O)(=O)NC[C@H]1CC[C@H](NC(=O)Cn2ccc3cc(Cl)ccc32)CC1")
2.8
>>> numeric_value("CC(C)S(=O)(=O)NC[C@H]1CC[C@H](NC(=O)CN2CCc3cc(Cl)ccc32)CC1")
1.9

* * *

log10 CLH values for the compounds below.
system: Liver microsomes; experiment: Intrinsic clearance in human liver microsomes at 1 uM by LC/MS analysis; format: ADME, Microsome
measurement.type: log10 CLH (log10 of the value in L/min)

>>> numeric_value("CC(C)S(=O)(=O)NC[C@H]1CC[C@H](NC(=O)Cn2c(=O)oc3ccccc32)CC1")
-0.30
>>> numeric_value("Cc1cc2ccccc2n1CC(=O)N[C@H]1CC[C@H](CNS(=O)(=O)C(C)C)CC1")
0.04
>>> numeric_value("CC(C)S(=O)(=O)NC[C@H]1CC[C@H](NC(=O)Cc2c[nH]c3ccccc23)CC1")
-0.30
>>> numeric_value("CC(C)S(=O)(=O)NC[C@H]1CC[C@H](NC(=O)Cn2ccc3ccc(Cl)cc32)CC1")
0.41
>>> numeric_value("CC(C)S(=O)(=O)NC[C@H]1CC[C@H](NC(=O)CN2CCc3cc(F)ccc32)CC1")
0.15
>>> numeric_value("CC(C)S(=O)(=O)NC[C@H]1CC[C@H](NC(=O)CN2CC(C)(C)c3cc(Cl)ccc32)CC1")
1.15
>>> numeric_value("CC(C)S(=O)(=O)NC[C@H]1CC[C@H](NC(=O)CN2C(=O)CCc3cc(Cl)ccc32)CC1")
-0.10
>>> numeric_value("CC(C)S(=O)(=O)NC[C@H]1CC[C@H](NC(=O)CN2C(=O)COc3cc(Cl)ccc32)CC1")
-0.30
>>> numeric_value("CC(C)S(=O)(=O)NC[C@H]1CC[C@H](NC(=O)Cn2ccc3cc(C#N)ccc32)CC1")
-0.40
